- PROTOCOL: Intrinsic clearance in human liver microsomes assessed per mg of protein
- Format: ADME, Microsome
ENDPOINT: microsomal CLint (µL/min/mg)

Recorded microsomal CLint of `O=C(NC1CCCCC1)N1CCN(c2nc(-c3ccc4ccccc4n3)no2)CC1` , please.
60

[P] O=C(Nc1ccccc1Cl)N1CCC(c2nc(-c3ccc4ccccc4n3)no2)CC1
[Q] O=C(NC1CCC(F)(F)CC1)N1CCN(c2nc(-c3ccc4ccccc4n3)no2)CC1
Which entry has a larger number for microsomal CLint, P or Q ? State the label of the item chosen.
P

###

- PROTOCOL: Intrinsic clearance in rat liver microsomes assessed per mg of protein
- Assay type: ADME, Microsome
ENDPOINT: microsomal CLint (µL/min/mg)

[1] Cn1c(-c2noc(C3CCN(C(=O)Nc4ccccc4Cl)CC3)n2)nc2ccccc21
[2] O=C(NC1CCC(F)(F)CC1)N1CCN(c2nc(-c3ccc4ccccc4n3)no2)CC1
Which entry has a larger number for microsomal CLint, 1 or 2 ? State the label of the item chosen.
1
